# SYSTEM: OsSMF1 (Oryza sativa, UniProt Q6ZLB0 1-436)
# Sequence: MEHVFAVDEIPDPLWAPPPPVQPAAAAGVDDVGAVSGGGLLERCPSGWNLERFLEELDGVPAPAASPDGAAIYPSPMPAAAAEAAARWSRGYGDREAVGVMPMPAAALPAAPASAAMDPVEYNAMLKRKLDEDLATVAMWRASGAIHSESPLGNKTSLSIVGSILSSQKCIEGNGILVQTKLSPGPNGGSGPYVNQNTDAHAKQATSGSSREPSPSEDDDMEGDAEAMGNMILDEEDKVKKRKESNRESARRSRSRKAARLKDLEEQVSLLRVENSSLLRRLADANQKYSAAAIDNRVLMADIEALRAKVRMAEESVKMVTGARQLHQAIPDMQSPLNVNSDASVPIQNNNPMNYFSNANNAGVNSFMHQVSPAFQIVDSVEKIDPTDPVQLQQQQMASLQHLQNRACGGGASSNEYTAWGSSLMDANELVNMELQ
# ASSAY TEXT: protein-binding microarray (RPBM); PBS, 2% BSA, 51.3 ng/ul salmon testes DNA, 50 uM zinc acetate, 200 nM TF, 25 C, 1 h; high values mean tight binding
# CONDITION LABEL: protein: recombinant; tags: N-terminal polyhistidine and DsRed monomer fusion (pET32a); chain copies: 2; label: CyDye5-dUTP incorporated in the synthesized complementary strand; 3' TTTTT single-stranded linker to array surface; dsDNA, one strand shown
In all, about 39,000 sequences were measured (“fluorescence intensity (a.u.)”: median about 4,300, highest 2% from about 39,000 on). The full list was thinned out, with the highest values kept by preference.
MEASURED ENDPOINT: binding signal

SEQ STRING | binding signal
CGCGAAAGGCGTGAAACCAGTGCACGCATCACCCATCTCGCGGAGTCACCTAGTGCAG | 3400 fluorescence intensity (a.u.)

Query :: Would you kindly share the measured binding signal for TAGGATGCCACGTCATCTCTCCCTTCCCCTCTCTCTCTCCCGGAGTCACCTAGTGCAG ?
Result :: 27000 fluorescence intensity (a.u.)

Query :: Would you kindly share the measured binding signal for AAATTTGATCCTCGCACACCAGCTCAGCTACAGATGACATCGGAGTCACCTAGTGCAG ?
Result :: 4230 fluorescence intensity (a.u.)

Query :: Would you kindly share the measured binding signal for CATCGGTCATGGTGGCGTTGGTCATGTTGGCATGGCCGTCCGGAGTCACCTAGTGCAG ?
Result :: 44000 fluorescence intensity (a.u.)

Query :: Would you kindly share the measured binding signal for ATCCCATCGCGCCACGCGAGCTCGATCGATCGAGGTGTGTCGGAGTCACCTAGTGCAG ?
Result :: 3490 fluorescence intensity (a.u.)

Query :: Would you kindly share the measured binding signal for CCGGTCGTCCGTCAGCATCCTCTCTTCCGTTGGTCATCCTCGGAGTCACCTAGTGCAG ?
Result :: 4550 fluorescence intensity (a.u.)

Query :: Would you kindly share the measured binding signal for AAACCAAAACCAAACCGAAGCTTCCCCATCTCGCGTGAACCGGAGTCACCTAGTGCAG ?
Result :: 40800 fluorescence intensity (a.u.)

Query :: Would you kindly share the measured binding signal for AAATCTCTCTCCACCCTTTCAGCGCGCCACGTGTCCCACACGGAGTCACCTAGTGCAG ?
Result :: 18900 fluorescence intensity (a.u.)

Query :: Would you kindly share the measured binding signal for TATTGATTGATTGGTTAGTACTACAGTACTGTAGGAGTGGCGGAGTCACCTAGTGCAG ?
Result :: 29800 fluorescence intensity (a.u.)
